Sourced from PubChem BioAssay

Here the recorded z-score is given for each entry.
- Assay Comment: inhibition of PAO1 biofilm formation – strain PAO1, LB-PBS medium, absorbance 600 nm, primary screen (AID 1176); also: test concentration not given here
- Study Conditions: P. aeruginosa PAO1 growth/biofilm, A600, 12 h; higher = more signal
Measured Attribute: z-score

INSERT INTO results (compound, result_value) VALUES
  ('O=c1cccc(-c2ccccc2)o1', 0.421),
  ('Cc1ccc(C(C)CC(O)C2C=CC3C(=O)NC(=O)C3N2Nc2ccccn2)o1 (centres undefined)', 1.04),
  ('CN(C)CCCC[C@@H]1NC(=O)[C@@H]2C[C@H](C(=O)NCCCCCCN)[C@H](c3ccc(O)cc3)N2C1=O', 0.643),
  ('COCCOC(=O)N1C(=O)[C@@]2(c3cc(C#Cc4ccc(OC)cc4)ccc31)[C@H](c1ccc(OCCO)cc1)N1[C@H](c3ccccc3)[C@H](c3ccccc3)OC(=O)[C@H]1[C@@H]2C(=O)N1CCc2cc(OC)c(OC)cc2C1', 3.34),
  ('COCCOC(=O)N1C(=O)[C@@]2(c3cc(C#CCCO)ccc31)[C@H](C(=O)NC[C@H](O)c1ccccc1)[C@H]1C(=O)O[C@H](c3ccccc3)[C@H](c3ccccc3)N1[C@@H]2c1ccc(OCCO)cc1', 1.75),
  ('O=C(NCC(F)(F)F)[C@@H]1c2ccccc2C(=O)N(Cc2ccccc2)[C@H]1c1ccc(CO)cc1', -0.0654),
  ('O=C(NCC(O)CO)[C@@]1(Cc2ccccc2)COC(c2ccc(OCCCO)cc2)=N1 (some centres undefined)', 0.385),
  ('C=C(/C(=C/C[C@@H](OC(=O)c1ccncc1)c1ccc(CO)o1)c1cc(C(=O)OC)ccc1OC)C(C)C', 0.519),
  ('CC1(C)C(=O)C(c2ccccc2)=C2CN3C(=O)N(CCc4ccccc4)C(=O)C3(Cc3ccccc3)C=C21 (centres undefined)', 0.784);

----------
# maps each entry to its composite z-score
- Assay Comment: probe aDKK1 binding to arrayed compounds – biochemical, biotinylated probe, 635/667 nm fluorescence, primary screen (AID 1099);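 also: score merges 667nm spot fluorescence with signal to noise across triplicate slides; reference of the scale not given here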
- Study Conditions: small-molecule microarray, higher = more signal
Measured Attribute: composite z-score

INSERT INTO measurements (molecule, result_value) VALUES
  ('C=CCC(OC(C)=O)[C@@H]1[C@@H](N(Cc2ccc(-c3ccccc3)cc2)C(=O)c2ccc(C)cc2)c2cc(OCCCO)ccc2N1C(=O)Cc1ccc(OC)cc1 (stereo not given in full)', -0.0745),
  ('C=C(C(=O)CC[C@@H](OC(=O)c1cccnc1)c1ccc(OCCO)cc1)C(C)C', -0.312),
  ('Cc1ccc(S[C@]2(C(=O)NCC(F)(F)F)CC(=O)N(C3Cc4ccccc4C3)[C@@H]2c2ccc(CO)cc2I)cc1', 0.599),
  ('COCCOC(=O)N1C(=O)[C@@]2(c3cc(C#CCC(C(=O)OC)C(=O)OC)ccc31)[C@H](c1ccccc1OCCO)N1[C@H](c3ccccc3)[C@H](c3ccccc3)OC(=O)[C@H]1[C@@H]2C(=O)Nc1nc2ccccc2s1', 0.514),
  ('CCOC(=O)C=Cc1cccc(OC)c1O', -0.349);

----------
- Target Desc: E3 ubiquitin-protein ligase XIAP (Homo sapiens)
- Assay Comment: small molecules binding XIAP protein – biophysical, small-molecule microarray, fluorescence 635 nm, primary screen (AID 1181);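 also: score merges 667 nm emission and signal to noise over triplicate slides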
- Study Conditions: higher = more signal
Returns fulfilled if the recorded composite z-score is greater than or equal to -0.06, and not fulfilled otherwise.

INSERT INTO results (compound, classification) VALUES
  ('C=C(COC)/C(=C/C[C@H](OC(C)=O)c1ccccc1OCCO)c1cnc2ccccc2c1', 'not fulfilled'),
  ('Cc1ccc(N2C(=O)c3ccccc3[C@@H](C(=O)NCC(C)C)[C@@H]2c2ccc(CO)cc2)nc1', 'not fulfilled'),
  ('C=CCN1C(=O)[C@]2(COC(c3ccc(OCCCO)cc3)=N2)Cc2ccccc21', 'fulfilled'),
  ('CN(C)CCCC[C@@H]1NC(=O)[C@@H]2C[C@H](C(=O)NCc3ccc(F)cc3)[C@H](c3cccc(OCCO)c3)N2C1=O', 'fulfilled'),
  ('CCOC(=O)C[C@H]1[C@H](OC(=O)c2cc3ccccc3oc2=O)[C@@H](NC(=O)c2ccc3ccccc3c2)c2cc(OCCCO)ccc2N1C(=O)c1ccccc1', 'fulfilled'),
  ('C=C(CCCC)C(=O)CC[C@H](OC(C)=O)c1ccc(CO)o1', 'fulfilled'),
  ('C=C[C@H](OC)[C@@H](OC(=O)Nc1ccc(SC)cc1)c1ccc(OCCO)cc1', 'fulfilled'),
  ('COc1ccc([Si](C)(C)[C@H]2[C@H](CC(=O)N(CCO)Cc3ccccc3)O[C@@]3(C(=O)N(Cc4cccc(N5C(=O)c6cccc7cccc5c67)c4)c4ccccc43)[C@@H]2C)cc1', 'fulfilled'),
  ('Cc1ccc(F)cc1S(=O)(=O)N[C@@H]1CCN(Cc2ccc(C(F)(F)F)cc2)C1', 'not fulfilled'),
  ('CC(C)NC(=O)[C@@]1(c2ccc([N+](=O)[O-])cc2)CC(=O)N(C(C)C)[C@@H]1c1ccc(CO)cc1', 'not fulfilled'),
  ('C[C@]1(C(=O)NCC(F)(F)F)c2ccccc2C(=O)N(Cc2cc(F)cc(C(F)(F)F)c2)[C@H]1c1ccc(CO)cc1', 'not fulfilled'),
  ('C=CCC(OC(C)=O)[C@@H]1[C@@H](N(Cc2cc3ccccc3o2)C(=O)c2ccc(C)cc2)c2cc(OCCCO)ccc2N1C(=O)c1ccc(-c2ccccc2)cc1 (stereo partly specified)', 'fulfilled'),
  ('COc1cc(CO)cc(I)c1O[C@H]1C=C(C(=O)NCCO)C[C@@H](N(CCc2cccc(F)c2)C(=O)CCC2CCCC2)[C@@H]1O', 'fulfilled'),
  ('O=C(CS)NCCCCCNC(=O)[C@H]1C[C@H]2C(=O)N[C@@H](Cc3ccccc3)C(=O)N2[C@H]1c1cccc(OCCO)c1', 'fulfilled'),
  ('C=CCN1C(=O)[C@@]2(O[C@@H](CCO)[C@H]([Si](C)(C)c3ccc(OC)cc3)[C@H]2C)c2cc(N3C(=O)COc4ccccc43)ccc21', 'fulfilled'),
  ('C=C(CCCC)/C(=C/C[C@@H](OC(=O)c1ccncc1)c1ccc(CO)o1)c1cc(C(=O)OC)ccc1OC', 'fulfilled');
